ASSAY_EXPLANATION: protein stability index of a GFP-peptide fusion (yeast GPS) (PSI 1-4); higher = more stable; sorted into four equal gates, so the index is relative within each strain
CONDITIONS_USED: ubr1∆
Kindly supply the reported protein stability index values for the records listed here.
Numbers only.

Study these solved cases before continuing.
SEQUENCE_TEXT	QUANTITY_NAME	MEASURED_VALUE
EESIKIYPLIKPGSTVM [UBP6]	protein stability index	2.96
KEIRAFDKLLNIPRREL [SRB4]	protein stability index	1.95
AGQLALDLANSGDESNV [YDL116W/NUP84]	protein stability index	3
LAKERQKLWLLECQLFP [SSN8]	protein stability index	2.05

protein stability index lookup needed for QPVNPKPFLKGLVNHRV [SMX3] , thanks. 3.06

* * *

Kindly supply the reported protein stability index values for the records listed here.
ASSAY_EXPLANATION: protein stability index of a GFP-peptide fusion (yeast GPS) (PSI 1-4); higher = more stable; sorted into four equal gates, so the index is relative within each strain
CONDITIONS_USED: ubr1∆
Numbers only.

SEQUENCE_TEXT	QUANTITY_NAME	MEASURED_VALUE
VSITPGKIEKIAQSKKK [SRP21]	protein stability index	1.49
KPGQNNRQQKKRRFDPS [RRP6]	protein stability index	2.56
IEKCLKASELKLALGIA [RPN2]	protein stability index	2.69
LFGQSQQPQTNTAPGLG [YGR119C/NUP57]	protein stability index	2.97

Okay, next one:
protein stability index lookup needed for ENSFYKKEASKTKWDRK [POP1] , thanks. 2.22

* * *

ASSAY_EXPLANATION: protein stability index of a GFP-peptide fusion (yeast GPS) (PSI 1-4); higher = more stable; sorted into four equal gates, so the index is relative within each strain
CONDITIONS_USED: doa10∆
QUANTITY_NAME: protein stability index
Answers are plain numbers.

Study these solved cases before continuing.
SEQUENCE_TEXT	protein stability index
LKKIASIPNLFPTDLEI [SWI1]	2.59
VPPVENFPVRQWSIEIV [TAF14]	3.15

Respectfully, I request protein stability index for each entry included below.
1. SIGEPATQMTLNTFHFA [RPO21]
2. HKVSSQSTNLNRSAKNS [YCS4]
3. KSDEGGSYLCTSSTPSP [YOR098C/NUP1]
4. SNIPNLLRNLESKMRQQ [YDL088C/ASM4]
5. SGDSGVYTLACRSCPYE [RPC11]
6. SLDLNNLELGGLNMDFL [PGD1]
7. LRPGQEISLKAHCILGI [RPC40]
8. PQWKRHLEEYGYLIQVL [YCS4]

[2.63, 2.24, 3.16, 3.15, 1.28, 3.24, 2.12, 2.27]

Respectfully, I request protein stability index for each entry included below.
1. VSPNDNNSANNNAHSSD [YMR153W/NUP53]
2. TIFKSGEIDFIKNIGKS [YML103C/NUP188]
3. TAKKTNRSAYDSKNTPN [YDL088C/ASM4]
4. TKEKVNGASVPINLHPS [RPL26A]
5. ENSFYKKEASKTKWDRK [POP1]

[2.91, 1.64, 2.68, 2.54, 2.25]

Respectfully, I request protein stability index for each entry included below.
1. YYKNFHNSVKRYQIMLP [SNM1]
2. EMGKTDKSTKTAEAPTL [YOR098C/NUP1]
3. SSHAKGIVLEKLGIESK [RPS23A]

1.12
3.1
3.02

Respectfully, I request protein stability index for each entry included below.
1. ATEPQMVLFNIYDDWLD [PRP8]
2. MQGKITKVLNMKPSEIL [SMC2]
3. GLSKEDDVRDFVIRREV [RPS6A]

1. 2.28
2. 2.48
3. 3.42
